Assay: qHTS RealTime-Glo MT Cell Viability Assay in HEK293 cells - 32 hour (AID 1224868); note: top concentration of the series differs between compounds; % is set by controls: 0 for no effect and ±100 for the full control effect; nearly all actives have a fitted effect of over 50% in size
Conditions: RealTime-Glo luminescence; series mostly up to 76.8 µM
Description: National Center for Advancing Translational Sciences [NCATS] NIH Chemical Genomics Center [NCGC] U.S. Environmental Protection Agency [EPA] National Institutes of Environmental Health Sciences [NIEHS] National Toxicology Program [NTP] U.S. Food and Drug Administration [FDA] Measure of cell viability is critical in the cell-base assay. Analysis of cell viability is necessary for the characterization of cell responses to cytotoxic drugs and environmental stress. […]
Results filed as inconclusive are left out. The source made the active and inactive calls. Calls come from the whole dose curve; as a rule, active = well fitted cell-killing curve with a large enough effect in the repeat runs; inconclusive = weak or mixed curves, or effect the other way; inactive = flat fitted curve, though single readings scatter.
experimental.readout: activity change, negative = cytotoxic

compound: COc1cc(-c2ccc(=O)[nH]n2)ccc1OC(F)F
experimental.readout: activity change, negative = cytotoxic
result: inactive
//
compound: C=COC(=O)C(C)(CC)CCC(C)C (stereo not drawn)
experimental.readout: activity change, negative = cytotoxic
result: inactive
//
compound: CN1CCN(c2cc3c(nn2)Oc2ccccc2N3C)CC1
experimental.readout: activity change, negative = cytotoxic
result: 1.71% [at 15.8 µM] (inactive)
//
compound: Nc1ccncc1N
experimental.readout: activity change, negative = cytotoxic
result: inactive
//
compound: O=C(O)CNC(=O)c1ccccc1
experimental.readout: activity change, negative = cytotoxic
result: inactive
//
compound: C=C[Si](OC(C)=O)(OC(C)=O)OC(C)=O
experimental.readout: activity change, negative = cytotoxic
result: inactive
//
compound: NC(N)=NCCN1CCCCCCC1
experimental.readout: activity change, negative = cytotoxic
result: -3.18% [at 0.29 µM] (inactive)
//
compound: Nc1c2c(nc3c1CCC3)CCCC2
experimental.readout: activity change, negative = cytotoxic
result: inactive

====

Test: A CellTox Green Cytotoxicity Assay to monitor cytotoxicity in HEK293 cells - 40 hour (AID 1224871); note: % is set by controls: 0 for no effect and ±100 for the full control effect; nearly all actives have a fitted effect of over 45% in size
Settings: CellTox Green fluorescence; series mostly up to 76.8 µM
Results filed as inconclusive are left out. Active and inactive are the calls of the source. Calls follow the shape of the dose curve; as a rule, active = well fitted activation curve with a large enough effect in the repeat runs; inconclusive = weak or mixed curves; inactive = flat fitted curve, though single readings scatter.
experimental.readout: cytotoxicity increase

compound: Clc1cc(Cl)c(Cl)nc1Cl
experimental.readout: cytotoxicity increase
result: inactive
//
compound: C=COC(=O)C(C)(CC)CCC(C)C (stereo not given)
experimental.readout: cytotoxicity increase
result: inactive
//
compound: O=S(=O)(O)c1cccc(S(=O)(=O)O)c1
experimental.readout: cytotoxicity increase
result: inactive
//
compound: CCCCCCCCCCCCSC
experimental.readout: cytotoxicity increase
result: inactive
//
compound: COc1cc(-c2ccc(=O)[nH]n2)ccc1OC(F)F
experimental.readout: cytotoxicity increase
result: inactive
//
compound: COc1ccc2cc1Oc1cc3c(cc1OC)CC[N+](C)(C)[C@H]3Cc1ccc(cc1)Oc1c(OC)c(OC)cc3c1[C@@H](C2)[N+](C)(C)CC3
experimental.readout: cytotoxicity increase
result: inactive
//
compound: CCCn1cc[n+](C)c1C
experimental.readout: cytotoxicity increase
result: inactive
//
compound: Cc1ccc(C(=O)c2ccc(CC(=O)O)n2C)cc1
experimental.readout: cytotoxicity increase
result: inactive
//
compound: N[C@@H](CCC(=O)O)C(=O)O
experimental.readout: cytotoxicity increase
result: inactive
//
compound: CCC(C)(CN(C)C)OC(=O)c1ccccc1 (stereo not given)
experimental.readout: cytotoxicity increase
result: inactive
//
compound: CO[C@@]1(NC(=O)C(C(=O)O)c2ccc(O)cc2)C(=O)N2C(C(=O)O)=C(CSc3nnnn3C)CO[C@@H]21 (stereo not given in full)
experimental.readout: cytotoxicity increase
result: inactive
//
compound: CCCc1nn(C)c2c(=O)[nH]c(-c3cc(S(=O)(=O)N4CCN(C)CC4)ccc3OCC)nc12
experimental.readout: cytotoxicity increase
result: inactive
//
compound: NC(CCC(=O)O)C(=O)O (stereo not given)
experimental.readout: cytotoxicity increase
result: inactive
//
compound: Cc1coc2ccccc2c1=O
experimental.readout: cytotoxicity increase
result: inactive
//
compound: C=CN1CCCCCC1=O
experimental.readout: cytotoxicity increase
result: inactive
//
compound: CCN[C@@H]1C[C@H](N)[C@@H](OC2OC(CN)=CCC2N)[C@H](O)[C@H]1O[C@H]1OC[C@](C)(O)[C@H](NC)[C@H]1O (stereo not given in full)
experimental.readout: cytotoxicity increase
result: 6.9% [at 0.29 µM] (inactive)
//
compound: CC(CC=O)CC(C)(C)C (stereo not given)
experimental.readout: cytotoxicity increase
result: inactive
//
compound: CC(C)(CCC(=O)O)C(=O)O
experimental.readout: cytotoxicity increase
result: inactive
//
compound: O=S(=O)(O)c1cc(O)c(O)c(S(=O)(=O)O)c1
experimental.readout: cytotoxicity increase
result: inactive
//
compound: C[N+](C)(CCOc1ccccc1)Cc1cccs1
experimental.readout: cytotoxicity increase
result: inactive
//
compound: NC(N)=NCCN1CCCCCCC1
experimental.readout: cytotoxicity increase
result: 1.15% [at 0.29 µM] (inactive)
//
compound: CCCCCC(=O)OCCc1ccccc1
experimental.readout: cytotoxicity increase
result: inactive
//
compound: COc1ccnc(CS(=O)c2nc3cc(OC(F)F)ccc3[nH]2)c1OC (stereo not given)
experimental.readout: cytotoxicity increase
result: inactive
//
compound: CC1=NN(c2cccc(S(=O)(=O)O)c2)C(=O)C1
experimental.readout: cytotoxicity increase
result: inactive
//
compound: Cc1cccc(C)c1NC(=O)CC12CCCN1CCC2
experimental.readout: cytotoxicity increase
result: inactive
//
compound: O=C(O)CNC(=O)c1ccc(CO)o1
experimental.readout: cytotoxicity increase
result: inactive
//
compound: N[C@H](C(=O)O)[C@@H](O)c1ccc(O)c(O)c1
experimental.readout: cytotoxicity increase
result: inactive
//
compound: CC12CCC(C(=O)C1=O)C2(C)C (stereo not given)
experimental.readout: cytotoxicity increase
result: inactive
//
compound: CO[Si](C)(OC)c1ccccc1
experimental.readout: cytotoxicity increase
result: inactive
//
compound: [K+]
experimental.readout: cytotoxicity increase
result: inactive
//
compound: CNCCO
experimental.readout: cytotoxicity increase
result: inactive
//
compound: C[C@H]1C[C@H]2[C@@H]3CCC4=CC(=O)C=C[C@]4(C)[C@H]3C(=O)C[C@]2(C)[C@@]1(O)C(=O)CO
experimental.readout: cytotoxicity increase
result: inactive
//
compound: O=Cc1cccc(Br)c1
experimental.readout: cytotoxicity increase
result: inactive
//
compound: O=C1NC(=O)C2CC=CCC12 (stereo not given)
experimental.readout: cytotoxicity increase
result: inactive
//
compound: CCCCN(CCC(=O)OCC)C(C)=O
experimental.readout: cytotoxicity increase
result: inactive
//
compound: O=S(=O)(O)c1cccc2c(S(=O)(=O)O)cccc12
experimental.readout: cytotoxicity increase
result: inactive
//
compound: O=C(O)CCCC[P+](c1ccccc1)(c1ccccc1)c1ccccc1
experimental.readout: cytotoxicity increase
result: inactive
//
compound: Nc1ccn([C@@H]2O[C@H](CO)[C@@H](O)[C@@H]2O)c(=O)n1
experimental.readout: cytotoxicity increase
result: inactive
//
compound: CC(CO)(CO)[N+](=O)[O-]
experimental.readout: cytotoxicity increase
result: inactive
//
compound: CC(C)(C)C(=O)Oc1ccc(S(=O)(=O)Nc2ccccc2C(=O)NCC(=O)O)cc1
experimental.readout: cytotoxicity increase
result: inactive
//
compound: CCOC(=O)c1ccccc1
experimental.readout: cytotoxicity increase
result: inactive
//
compound: CC(=O)N[C@H]1[C@H]([C@H](O)[C@H](O)CO)OC(C(=O)O)=C[C@@H]1N=C(N)N
experimental.readout: cytotoxicity increase
result: inactive
//
compound: Cc1ccccc1N=C(N)N=C(N)N
experimental.readout: cytotoxicity increase
result: inactive
//
compound: CC[C@H]1OC(=O)[C@H](C)[C@@H](O[C@H]2C[C@@](C)(OC)[C@@H](O)[C@H](C)O2)[C@H](C)[C@@H](O[C@@H]2O[C@H](C)C[C@H](N(C)C)[C@H]2O)[C@](C)(OC)C[C@@H](C)C(=O)[C@H](C)[C@@H](O)[C@]1(C)O
experimental.readout: cytotoxicity increase
result: inactive
//
compound: CC(C)=CCC/C(C)=C/C#N
experimental.readout: cytotoxicity increase
result: inactive
//
compound: CC1CCC(CO)CC1 (stereo not given)
experimental.readout: cytotoxicity increase
result: inactive
//
compound: CCCCc1ccc2c(n1)[C@@H](c1ccc(OC)cc1C[C@H](C)C(=O)O)[C@H](C(=O)O)[C@H]2c1ccc2c(c1)OCO2
experimental.readout: cytotoxicity increase
result: inactive
//
compound: CC(=O)c1ccccc1[N+](=O)[O-]
experimental.readout: cytotoxicity increase
result: inactive
//
compound: CC(COc1ccccc1)NN (stereo not given)
experimental.readout: cytotoxicity increase
result: inactive
//
compound: CC(C)NNC(=O)c1ccncc1
experimental.readout: cytotoxicity increase
result: inactive
